Data credit: ChEMBL document CHEMBL6153150

Assignment: determine reported half-life for the given molecules.
assayNotes: Half life in rat plasma at 50 mg/kg, po and measured upto 24 hr by LC-MS/MS analysis
Type: ADME, organism-based
State the result as a value with its unit after it.

Entry O=C(NCCCN1CCOCC1)[C@H]1C[C@H](c2ccccc2)CN1C(=O)c1cc(C2CC2)c(O)cc1O ; half-life = 6.9 h

Entry CC(C)c1cc(C(=O)N2C[C@@H](c3ccccc3)C[C@@H]2C(=O)NCCCN2CCOCC2)c(O)cc1O ; half-life = 5.8 h

* * *

propertyLabel: pKd
In simple prose, pKd is minus the logarithm base ten of a concentration in moles per litre.

The compound CC(C)c1cc(C(=O)N2Cc3ccc(CN4CCN(C)CC4)cc3C2)c(O)cc1O [ONALESPIB] , tested on Heat shock protein HSP 90-alpha (Homo sapiens), showed pKd of 7.30

* * *

studySystem: Heat shock protein HSP90 (Homo sapiens, UniProt P07900+P08238)
assayNotes: Binding affinity to Hsp90 (unknown origin) assessed as dissociation constant incubated for 30 mins by fluorescence spectrophotometric analysis
Format: protein assay
Assignment: determine reported Kd for the given compounds.
State the result as a value with its unit after it.

Entry O=C(NCc1ccc(F)cc1F)[C@H]1C[C@H](c2ccccc2)CN1C(=O)c1cc(C2CC2)c(O)cc1O ; Kd = 157 nM

Entry CCOCCCNC(=O)[C@H]1C[C@H](c2ccccc2)CN1C(=O)c1cc(C2CC2)c(O)cc1O ; Kd = 937 nM

Entry Cc1ccc(CNC(=O)[C@H]2C[C@H](c3ccccc3)CN2C(=O)c2cc(C3CC3)c(O)cc2O)cc1 ; Kd = 153 nM

Entry CCCNC(=O)[C@H]1C[C@H](c2ccccc2)CN1C(=O)c1cc(C(C)C)c(O)cc1O ; Kd = 1653 nM

Entry CC(C)N(Cc1cccnc1)C(=O)[C@H]1CCCN1C(=O)c1cc(C2CC2)c(OP(=O)(O)O)cc1O ; Kd = 136 nM

Entry CC1CCCN(C(=O)[C@H]2C[C@H](c3ccccc3)CN2C(=O)c2cc(C(C)C)c(O)cc2O)C1 (some centres not stated) ; Kd = 2162 nM

Entry CC(C)c1cc(C(=O)N2C[C@@H](c3ccccc3)C[C@@H]2C(=O)N2CCC(N3CCCCC3)CC2)c(O)cc1O ; Kd = 983 nM

Entry CCOCCNC(=O)[C@H]1C[C@H](c2ccccc2)CN1C(=O)c1cc(C(C)C)c(O)cc1O ; Kd = 124 nM

Entry CC(C)c1cc(C(=O)N2C[C@@H](c3ccccc3)C[C@@H]2C(=O)NC2CCCC2)c(O)cc1O ; Kd = 876 nM

Entry COCCN(CCOC)C(=O)[C@H]1C[C@H](c2ccccc2)CN1C(=O)c1cc(C2CC2)c(O)cc1O ; Kd = 637 nM

Entry CC(C)NC(=O)[C@H]1C[C@H](c2ccccc2)CN1C(=O)c1cc(C(C)C)c(O)cc1O ; Kd = 1237 nM

Entry CC(C)CNC(=O)[C@H]1C[C@H](c2ccccc2)CN1C(=O)c1cc(C(C)C)c(O)cc1O ; Kd = 165 nM

Entry COc1ccc(CNC(=O)[C@H]2C[C@H](c3ccccc3)CN2C(=O)c2cc(C(C)C)c(O)cc2O)cc1 ; Kd = 147 nM

Entry CCN(C)C(=O)[C@H]1C[C@H](c2ccccc2)CN1C(=O)c1cc(C(C)C)c(O)cc1O ; Kd = 1873 nM

Entry O=C(NCc1ccccc1)[C@H]1C[C@H](c2ccccc2)CN1C(=O)c1cc(C2CC2)c(O)cc1O ; Kd = 67 nM

Entry CC(C)C(C)NC(=O)[C@H]1C[C@H](c2ccccc2)CN1C(=O)c1cc(C2CC2)c(O)cc1O (some centres not stated) ; Kd = 345 nM

Entry CC(C)CNC(=O)[C@H]1C[C@H](c2ccccc2)CN1C(=O)c1cc(C2CC2)c(O)cc1O ; Kd = 107 nM

* * *

propertyLabel: pIC50
In simple prose, pIC50 is minus the logarithm base ten of a concentration in moles per litre.

The molecule CC(C)c1cc(C(=O)N2C[C@@H](c3ccccc3)C[C@@H]2C(=O)NCCCN2CCOCC2)c(O)cc1O , tested on Endoplasmin (Homo sapiens), showed pIC50 of 6.11

The molecule CC(C)c1cc(C(=O)N2Cc3ccc(CN4CCN(C)CC4)cc3C2)c(O)cc1O , tested on Endoplasmin (Homo sapiens), showed pIC50 of 7.52

The molecule CC(C)c1cc(C(=O)N2C[C@@H](c3ccccc3)C[C@@H]2C(=O)NCCc2ccccc2)c(O)cc1O , tested on Endoplasmin (Homo sapiens), showed pIC50 of 6.52

The molecule O=C(NCCCN1CCOCC1)[C@H]1C[C@H](c2ccccc2)CN1C(=O)c1cc(C2CC2)c(O)cc1O , tested on Endoplasmin (Homo sapiens), showed pIC50 of 6.69

* * *

Test system: A549
assayNotes: Antiproliferative activity against human A549 cells assessed as cell viability inhibition rate incubated for 72 hr by MTT assay
Type: functional, cell-based
assayConditions: A549, 72 h
pIC50: −log10 of the molar value.
We use 7 as the dividing line for pIC50: on or above the line is yes (1), below is no (0).

Given O=C(NCc1ccc(F)cc1F)[C@H]1C[C@H](c2ccccc2)CN1C(=O)c1cc(C2CC2)c(O)cc1O , state whether its pIC50 is at least 7.
yes (1)

Given CC(C)c1cc(C(=O)N2C[C@@H](c3ccccc3)C[C@@H]2C(=O)NCCCN2CCOCC2)c(O)cc1O , state whether its pIC50 is at least 7.
yes (1)

Given O=C(NCc1ccccc1F)[C@H]1C[C@H](c2ccccc2)CN1C(=O)c1cc(C2CC2)c(O)cc1O , state whether its pIC50 is at least 7.
yes (1)

Given CCOCCCNC(=O)[C@H]1C[C@H](c2ccccc2)CN1C(=O)c1cc(C2CC2)c(O)cc1O , state whether its pIC50 is at least 7.
no (0)

* * *

assayNotes: Selectivity ratio of IC50 for inhibition of GRP94 (unknown origin) to IC50 for inhibition of HSP90alpha (unknown origin)
Assignment: determine reported Ratio IC50 for the given molecules.
Output spec: single numeric token, no unit.

Entry CC(C)c1cc(C(=O)N2C[C@@H](c3ccccc3)C[C@@H]2C(=O)NCCCN2CCOCC2)c(O)cc1O ; Ratio IC50 = 5.02

Entry CC(C)c1cc(C(=O)N2C[C@@H](c3ccccc3)C[C@@H]2C(=O)NCCc2ccccc2)c(O)cc1O ; Ratio IC50 = 2.22

Entry O=C(NCCCN1CCOCC1)[C@H]1C[C@H](c2ccccc2)CN1C(=O)c1cc(C2CC2)c(O)cc1O ; Ratio IC50 = 1.49

Entry CC(C)c1cc(C(=O)N2Cc3ccc(CN4CCN(C)CC4)cc3C2)c(O)cc1O [ONALESPIB] ; Ratio IC50 = 0.6

* * *

System: SK-BR-3
assayNotes: Antiproliferative activity against human SK-BR-3 cells assessed as cell viability inhibition rate incubated for 72 hr by MTT assay
Type: functional, cell-based
assayConditions: SK-BR-3, 72 h
Assignment: determine reported pIC50 for the given compounds.
In simple prose, pIC50 is minus the logarithm base ten of a concentration in moles per litre.

Entry O=C(NCc1ccccc1F)[C@H]1C[C@H](c2ccccc2)CN1C(=O)c1cc(C2CC2)c(O)cc1O ; pIC50 = 6.51

Entry O=C(NCc1ccccn1)[C@H]1C[C@H](c2ccccc2)CN1C(=O)c1cc(C2CC2)c(O)cc1O ; pIC50 = 6.45

Entry Cc1ccc(CNC(=O)[C@H]2C[C@H](c3ccccc3)CN2C(=O)c2cc(C3CC3)c(O)cc2O)cc1 ; pIC50 = 6.37

Entry CC(C)c1cc(C(=O)N2C[C@@H](c3ccccc3)C[C@@H]2C(=O)NC(C)c2ccccc2)c(O)cc1O (stereo partly drawn) ; pIC50 = 6.15

Entry CC(C)c1cc(C(=O)N2Cc3ccc(CN4CCN(C)CC4)cc3C2)c(O)cc1O ; pIC50 = 6.71

Entry CC(C)c1cc(C(=O)N2C[C@@H](c3ccccc3)C[C@@H]2C(=O)NCCCN2CCOCC2)c(O)cc1O ; pIC50 = 6.68

Entry COc1ccc(C(C)NC(=O)[C@H]2C[C@H](c3ccccc3)CN2C(=O)c2cc(C(C)C)c(O)cc2O)cc1 (stereo partly drawn) ; pIC50 = 6.14

Entry CC(C)c1cc(C(=O)N2C[C@@H](c3ccccc3)C[C@@H]2C(=O)NCc2ccc3ccccc3n2)c(O)cc1O ; pIC50 = 6.20

* * *

studySystem: Heat shock protein HSP90 (Homo sapiens, UniProt P07900+P08238)
assayNotes: Binding affinity to Hsp90 (unknown origin) assessed as dissociation constant incubated for 30 mins by fluorescence spectrophotometric analysis
Assay type: protein assay
Hi! Could you tag entries with Kd below 2000 nM as true, and those at or above as false? Much appreciated.

Kd strictly < 2000 nM for this compound? CCCCNC(=O)[C@H]1C[C@H](c2ccccc2)CN1C(=O)c1cc(C(C)C)c(O)cc1O
true

Kd strictly < 2000 nM for this compound? O=C(NCc1ccccc1Cl)[C@H]1C[C@H](c2ccccc2)CN1C(=O)c1cc(C2CC2)c(O)cc1O
true

Kd strictly < 2000 nM for this compound? CC(C)c1cc(C(=O)N2C[C@@H](c3ccccc3)C[C@@H]2C(=O)N(C)Cc2ccccc2)c(O)cc1O
false

Kd strictly < 2000 nM for this compound? CC(C)c1cc(C(=O)N2C[C@@H](c3ccccc3)C[C@@H]2C(=O)N(C)C2CC2)c(O)cc1O
true

Kd strictly < 2000 nM for this compound? CC(C)c1cc(C(=O)N2C[C@@H](c3ccccc3)C[C@@H]2C(=O)N2CCN(CC3CC3)CC2)c(O)cc1O
true

Kd strictly < 2000 nM for this compound? O=C(c1ccc(O)cc1)N1Cc2ccccc2C1
false

Kd strictly < 2000 nM for this compound? O=C(NCCCN1CCOCC1)[C@H]1C[C@H](c2ccccc2)CN1C(=O)c1cc(C2CC2)c(O)cc1O
true

Kd strictly < 2000 nM for this compound? CC(C)c1cc(C(=O)N2C[C@@H](c3ccccc3)C[C@@H]2C(=O)N2CCN(Cc3ccccc3)CC2)c(O)cc1O
true

Kd strictly < 2000 nM for this compound? CC(C)c1cc(C(=O)N2C[C@@H](c3ccccc3)C[C@@H]2C(=O)N(C)C2CCCCC2)c(O)cc1O
true

Kd strictly < 2000 nM for this compound? CC(C)c1cc(C(=O)N2C[C@@H](c3ccccc3)C[C@@H]2C(=O)N2CCN(c3ncccn3)CC2)c(O)cc1O
true
